Below: a set of entries, each annotated with reported apparent KD of K4 kissing-loop reporter.
Test system: K4 kissing-loop RNA reporter
METHOD: apparent KD of K4 kissing-loop reporter; higher = weaker reporter binding
SETUP_CONDITIONS: Eterna round: R107; input ligand: arginine 13.2 mM
METRIC_NAME: apparent KD of K4 kissing-loop reporter (nM)

BIOPOLYMER_SEQUENCE: UGUGUUGUUGUGAUGUUUGGUGUUGCAGGGCAGGAUAUCGUAGAGGCGAGAAGGGCUUUUGUGCGGUAUGAGUGAUGUUUGUAGG [rrcgsmullin]
EXPERIMENTAL_TARGET: K4 kissing-loop RNA reporter
METRIC_NAME: apparent KD of K4 kissing-loop reporter
REPORTED_VALUE: 218
--
BIOPOLYMER_SEQUENCE: AGAACUGUCUUGGAUACCAGUGAUGUUGGUAUCUGUGUGUGAGUGCAAAGCGUCCCACAUUGCCCUUGGCAGCUAAGACUGUUCA [Omei KL Theo B Exc A v1]
EXPERIMENTAL_TARGET: K4 kissing-loop RNA reporter
METRIC_NAME: apparent KD of K4 kissing-loop reporter
REPORTED_VALUE: 129
--
BIOPOLYMER_SEQUENCE: GCUAUGGUAGGAAGGAGCGCUUAUUUAUUUUUAAGAGUGAUGUUCGUUAGUAGAUAGUUAAAGCAGGUAGGUCGCCUACUAUAGC [Arginine B K4 15]
EXPERIMENTAL_TARGET: K4 kissing-loop RNA reporter
METRIC_NAME: apparent KD of K4 kissing-loop reporter
REPORTED_VALUE: 177
--
BIOPOLYMER_SEQUENCE: UGAUACCAGACUGAUACCAGCAAGUGAUGUUUGCUGAUCUAAAGCAGUCAAAGACUGCCUUGCCCUUGGCAGCAGUCUGGUAUCU [TheoBX 25 #SwitchBubble #StaticStem]
EXPERIMENTAL_TARGET: K4 kissing-loop RNA reporter
METRIC_NAME: apparent KD of K4 kissing-loop reporter
REPORTED_VALUE: 81.7
--
BIOPOLYMER_SEQUENCE: CCGAGCCUGACGAAAGUCAGGCUCUGCGAGCGAGGACCGGUACGGCCGCCACUCGGUGCAGUGAUGUUGCAUGGCCGCAAGGCCG [#2 Exclusion - Tryptophan A Attempt #22 (HarryS)]
EXPERIMENTAL_TARGET: K4 kissing-loop RNA reporter
METRIC_NAME: apparent KD of K4 kissing-loop reporter
REPORTED_VALUE: 223
--
BIOPOLYMER_SEQUENCE: CAAUGAGUAUAAGAUGAUAUCAUAACAGAAGGAGCGAGUGAUAACUCAGGUAGGUCGCUGAAUUUAUCGAGUGAUGUUCGAUAAA [whbob_SS_Arginine_A_sa116]
EXPERIMENTAL_TARGET: K4 kissing-loop RNA reporter;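 note: bound reporter read as fluorescence of individual clusters on recovered sequencing chips by microscopy, with normalized cluster intensities fitted with a binding model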
METRIC_NAME: apparent KD of K4 kissing-loop reporter
REPORTED_VALUE: 154
